Where do these numbers come from? They come from ChEMBL document CHEMBL4689842.

system: U2OS; assay: Multiplex assay against U2OS; assay type: toxicity, cell-based; details: human, 12 h, 1 µM, compound concentration 1 uM, replicate 2
property: Population Apoptotic (%)

> print(dat)
                                    compound  value.measured
 1  C=CC(=O)Nc1ccc2[nH]c(=O)n(C3CCN(Cc4ccc(-c5nc6cc[nH]c(=O)c6cc5-c5ccccc5)cc4)CC3)c2c1              28
 2  CCOC(=O)Nc1cc(-c2ccc(C)c(NS(C)(=O)=O)c2)nn2c(C)nnc12             100
 3  Cc1cccc(CN2CCN(C(c3ccccc3)c3ccc(Cl)cc3)CC2)c1.Cl.Cl (stereo unspecified)               0
 4  CNC(=O)Nc1ccc2c(c1)[C@@]1(CC2)OC(=O)N(CC(=O)N(Cc2ccc(F)cc2)[C@@H](C)C(F)(F)F)C1=O              75
 5  CN1CCN(Cc2ccc(Nc3ncc(Cl)c(Nc4ccccc4S(=O)(=O)N(C)C)n3)cc2)CC1             100
 6  CC1=C(C(=O)Nc2cc3cn[nH]c3cc2F)C(c2ccc(C(F)(F)F)cc2)CC(=O)N1 (stereo unspecified)              50
 7       CC(C)(C)NC[C@H](O)COc1nsnc1N1CCOCC1             100
 8  CC(C)CC(=O)Nc1[nH]nc2c1CN(C(=O)C1CCN(C)CC1)C2(C)C              20
 9  CC(C)Oc1ccccc1C(=O)Nc1ccccc1C(=O)Nc1cccc(S(=O)(=O)C(F)(F)F)c1              33
10  CC(C)OC(=O)N1CCC(Oc2ncnc3c2cnn3-c2ccc(S(C)(=O)=O)cc2F)CC1              33
11  Cc1nc(N2CC[C@H](O)C2)ncc1-c1cc(C(F)(F)F)cc2[nH]ncc12              14
